// provenance: ChEMBL document CHEMBL4831555

- Measurement Target: UniProt:P60568
- Assay Method Text: Binding affinity to L19-IL2 (unknown origin) by fluorescence polarization assay
Assay Metric: Kd (nM)

Example results:
O=C(N[C@@H](Cc1cccc(I)c1)C(=O)O)c1cc2c(F)cccc2[nH]1 : 250
O=C(N[C@@H](Cc1ccc2ccccc2c1)C(=O)O)c1cc2c(F)cccc2[nH]1 : 750

[A] O=C(N[C@@H](Cc1ccc(I)cc1)C(=O)O)c1cc2c(F)cccc2[nH]1
[B] O=C(N[C@@H](Cc1ccc(O)c(I)c1)C(=O)O)c1cc2c(F)cccc2[nH]1
Input pair: A , B . Output: entry with lower Kd. Answer = label.
B
(B: 250 nM, A: 640 nM)

====

Measured Kd values are reported for all entries that follow.
- Measurement Target: Tumor necrosis factor (Homo sapiens)
- Sequence (P01375 whole entry): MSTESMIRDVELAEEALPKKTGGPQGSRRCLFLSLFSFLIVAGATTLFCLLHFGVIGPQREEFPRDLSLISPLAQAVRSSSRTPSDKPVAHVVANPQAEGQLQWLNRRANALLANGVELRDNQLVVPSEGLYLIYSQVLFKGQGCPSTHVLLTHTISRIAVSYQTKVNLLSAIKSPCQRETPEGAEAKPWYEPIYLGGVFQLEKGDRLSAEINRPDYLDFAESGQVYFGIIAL
Express the result in µM but write the number alone.

O=C(N[C@@H](Cc1ccc(O)c(I)c1)C(=O)O)c1cc2c(F)cccc2[nH]1 : 5.1

Let's switch to this compound now.
Quick note, Kd for N=C(N)NCCC[C@H](NC(=O)[C@H](Cc1ccc(O)c(I)c1)NC(=O)c1cc2c(F)cccc2[nH]1)C(=O)O landed at 4.4

====

- Assay Method Text: Binding affinity to AGP (unknown origin) by fluorescence polarization assay
- Set-up: species or system Homo sapiens
Assay Metric: Kd (µM)

COC(=O)[C@H](Cc1ccc(C#Cc2ccccc2)cc1)NC(=O)C[C@@H]1CCCN(C(=N)N)C1 : 4.9
N=C(N)NCCC[C@H](NC(=O)[C@H](Cc1ccc(O)c(I)c1)NC(=O)c1cc2c(F)cccc2[nH]1)C(=O)O : 3.4
N=C(N)NCCC[C@@H](NC(=O)[C@H](Cc1ccc(O)c(I)c1)NC(=O)c1cc2c(F)cccc2[nH]1)C(=O)O : 3
N=C(N)NCCC[C@@H](NC(=O)[C@@H](Cc1ccc(O)c(I)c1)NC(=O)c1cc2c(F)cccc2[nH]1)C(=O)O : 4

====

- Measurement Target: Interleukin-2 (Homo sapiens, UniProt P60568)
- Sequence (P60568 whole entry): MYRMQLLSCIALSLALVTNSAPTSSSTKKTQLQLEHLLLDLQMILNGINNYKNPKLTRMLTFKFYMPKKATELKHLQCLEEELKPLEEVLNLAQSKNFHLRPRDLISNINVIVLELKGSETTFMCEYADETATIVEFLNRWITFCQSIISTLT
- Assay Method Text: Binding affinity to L19-IL2 (unknown origin) by fluorescence polarization assay
pKd: −log10 of the molar value.
Assay Metric: pKd

Example results:
COC(=O)[C@H](Cc1ccc(C#Cc2ccccc2)cc1)NC(=O)C[C@@H]1CCCN(C(=N)N)C1 : 5.82
O=C(N[C@@H](Cc1ccc(O)c(I)c1)C(=O)O)c1cc2ccc(F)cc2[nH]1 : 6.55
O=C(N[C@@H](Cc1ccc(O)c([N+](=O)[O-])c1)C(=O)O)c1cc2c(F)cccc2[nH]1 : 6.14

[a] O=C(N[C@@H](Cc1ccc(O)c(Br)c1)C(=O)O)c1cc2c(F)cccc2[nH]1
[b] N=C(N)NCCC[C@H](NC(=O)[C@@H](Cc1ccc(O)c(I)c1)NC(=O)c1cc2c(F)cccc2[nH]1)C(=O)O
[c] O=C(N[C@@H](Cc1ccc(O)c(I)c1)C(=O)O)c1c[nH]c2cccc(F)c12
Number of molecules to sort: 3. Sort criterion: pKd, ascending. Output spec: labels arranged per the requested ranking.
b, c, a
(b: 5.92, c: 6.29, a: 6.52)

====

- Measurement Target: UniProt:P60568
- Assay Method Text: Binding affinity to IL2 (unknown origin) by SPR assay
Assay Metric: Kd (µM)
Express the result in µM but write the number alone.

Quick note, Kd for COC(=O)[C@H](Cc1ccc(C#Cc2ccccc2)cc1)NC(=O)C[C@@H]1CCCN(C(=N)N)C1 landed at 22

====

- Measurement Target: Interleukin-2 (Homo sapiens, UniProt P60568)
- Assay Method Text: Binding affinity to IL2 (unknown origin) preincubated for 15 mins followed by NARA1 addition and measured after 1 hr in presence of NARA1 by ELISA
Assay Metric: pIC50
pIC50 is defined as minus the log10 of a concentration measured in mol/L.

Quick note, pIC50 for N=C(N)NCCC[C@H](NC(=O)[C@H](Cc1ccc(O)c(I)c1)NC(=O)c1cc2c(F)cccc2[nH]1)C(=O)O landed at 5.47

====

- Measurement Target: Albumin (Homo sapiens)
- Assay Method Text: Binding affinity to human serum albumin by fluorescence polarization assay
Assay Metric: Kd (nM)

Example results:
O=C(N[C@H](Cc1ccc(O)c(I)c1)C(=O)O)c1cc2c(F)cccc2[nH]1 : 220
O=C(N[C@@H](Cc1ccc(O)c(I)c1)C(=O)O)c1cc2ccccc2[nH]1 : 390
O=C(N[C@@H](Cc1ccc(O)cc1)C(=O)O)c1cc2c(F)cccc2[nH]1 : 1500

[I] O=C(N[C@@H](Cc1ccc(O)c(I)c1)C(=O)O)c1cc2cccc(F)c2[nH]1
[II] COC(=O)[C@H](Cc1ccc(C#Cc2ccccc2)cc1)NC(=O)C[C@@H]1CCCN(C(=N)N)C1
[III] O=C(N[C@@H](Cc1ccc(O)c(Br)c1)C(=O)O)c1cc2c(F)cccc2[nH]1
[IV] N=C(N)NCCC[C@H](NC(=O)[C@H](Cc1ccc(O)c(I)c1)NC(=O)c1cc2c(F)cccc2[nH]1)C(=O)O
Order field: Kd | Direction: descending (largest first) Output spec: labels arranged per the requested ranking.
II, IV, III, I
(II: 4000 nM, IV: 2000 nM, III: 780 nM, I: 210 nM)

====

- Measurement Target: Albumin (Homo sapiens, UniProt P02768)
- Sequence (P02768 whole entry): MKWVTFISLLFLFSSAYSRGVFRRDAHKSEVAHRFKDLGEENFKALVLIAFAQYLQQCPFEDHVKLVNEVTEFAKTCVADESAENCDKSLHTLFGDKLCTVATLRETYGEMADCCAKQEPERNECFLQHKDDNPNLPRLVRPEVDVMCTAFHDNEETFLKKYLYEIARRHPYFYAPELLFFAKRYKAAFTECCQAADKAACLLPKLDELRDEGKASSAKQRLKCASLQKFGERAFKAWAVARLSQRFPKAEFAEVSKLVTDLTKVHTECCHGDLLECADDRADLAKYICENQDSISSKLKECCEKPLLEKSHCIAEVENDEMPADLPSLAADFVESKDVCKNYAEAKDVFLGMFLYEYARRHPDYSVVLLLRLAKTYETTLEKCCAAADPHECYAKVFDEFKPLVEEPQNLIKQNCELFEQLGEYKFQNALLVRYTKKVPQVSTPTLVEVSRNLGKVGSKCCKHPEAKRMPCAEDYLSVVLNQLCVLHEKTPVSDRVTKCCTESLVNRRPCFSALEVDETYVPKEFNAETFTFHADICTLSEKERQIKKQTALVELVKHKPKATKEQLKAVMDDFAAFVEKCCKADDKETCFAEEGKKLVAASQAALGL
- Assay Method Text: Binding affinity to human serum albumin by fluorescence polarization assay
Assay Metric: Kd (nM)

O=C(N[C@@H](Cc1ccc(O)c([N+](=O)[O-])c1)C(=O)O)c1cc2c(F)cccc2[nH]1 : 310

[I] O=C(N[C@@H](Cc1ccc(O)c(I)c1)C(=O)O)c1cc2cc(F)ccc2[nH]1
[II] O=C(N[C@@H](Cc1ccc(O)c(I)c1)C(=O)O)c1cc2ccc(F)cc2[nH]1
Sort I and II by Kd descending and give the first. Answer = label.
I

====

- Measurement Target: Interleukin-2 (Homo sapiens, UniProt P60568)
- Assay Method Text: Binding affinity to L19-IL2 (unknown origin) by fluorescence polarization assay
pKd: −log10 of the molar value.
Assay Metric: pKd

O=C(N[C@@H](Cc1ccc(O)c(F)c1)C(=O)O)c1cc2c(F)cccc2[nH]1 : 6.04

[I] N=C(N)NCCC[C@H](NC(=O)[C@H](Cc1ccc(O)c(I)c1)NC(=O)c1cc2c(F)cccc2[nH]1)C(=O)O
[II] O=C(N[C@H](Cc1ccc(O)c(I)c1)C(=O)O)c1cc2c(F)cccc2[nH]1
Sort I and II by pKd descending and give the first. Answer = label.
II
(II: 6.68, I: 6.47)

[I] O=C(N[C@@H](Cc1ccc(O)cc1)C(=O)O)c1cc2c(F)cccc2[nH]1
[II] N=C(N)NCCC[C@@H](NC(=O)[C@H](Cc1ccc(O)c(I)c1)NC(=O)c1cc2c(F)cccc2[nH]1)C(=O)O
[III] O=C(N[C@@H](Cc1ccc(O)c(I)c1)C(=O)O)c1cc2cc(F)ccc2[nH]1
Order field: pKd | Direction: descending (largest first) Output spec: labels arranged per the requested ranking.
III, II, I
(III: 6.48, II: 6.06, I: 5.85)

[P] O=C(N[C@@H](Cc1ccc(O)c(I)c1)C(=O)O)c1cc2ccccc2[nH]1
[Q] N=C(N)NCCC[C@@H](NC(=O)[C@@H](Cc1ccc(O)c(I)c1)NC(=O)c1cc2c(F)cccc2[nH]1)C(=O)O
Sort P and Q by pKd descending and give the first. Answer = label.
P

[a] O=C(N[C@@H](Cc1ccc(O)c(I)c1)C(=O)O)c1cc2c(F)cccc2o1
[b] O=C(N[C@@H](Cc1ccc(O)c(Cl)c1)C(=O)O)c1cc2c(F)cccc2[nH]1
Sort a and b by pKd descending and give the first. Answer = label.
b

[a] O=C(N[C@@H](Cc1ccc(O)c(I)c1)C(=O)O)c1cc2cccc(F)c2[nH]1
[b] COc1ccc(C[C@H](NC(=O)c2cc3c(F)cccc3[nH]2)C(=O)O)cc1
Input pair: a , b . Output: entry with lower pKd. Answer = label.
b

====

- Measurement Target: Albumin (Homo sapiens)
- Assay Method Text: Binding affinity to human serum albumin by fluorescence polarization assay
Assay Metric: Kd (nM)

Example results:
O=C(N[C@@H](Cc1cccc(I)c1)C(=O)O)c1cc2c(F)cccc2[nH]1 : 20
O=C(N[C@@H](Cc1ccc2ccccc2c1)C(=O)O)c1cc2c(F)cccc2[nH]1 : 30
COc1ccc(C[C@H](NC(=O)c2cc3c(F)cccc3[nH]2)C(=O)O)cc1 : 430
N=C(N)NCCC[C@@H](NC(=O)[C@@H](Cc1ccc(O)c(I)c1)NC(=O)c1cc2c(F)cccc2[nH]1)C(=O)O : 7200
O=C(N[C@@H](Cc1ccc(O)c(I)c1)C(=O)O)c1cc2c(F)cccc2o1 : 1000
O=C(N[C@@H](Cc1ccc(O)c(Cl)c1)C(=O)O)c1cc2c(F)cccc2[nH]1 : 580

[A] O=C(N[C@@H](Cc1ccc(O)c(I)c1)C(=O)O)c1cc2c(F)cccc2[nH]1
[B] N=C(N)NCCC[C@@H](NC(=O)[C@H](Cc1ccc(O)c(I)c1)NC(=O)c1cc2c(F)cccc2[nH]1)C(=O)O
[C] O=C(N[C@@H](Cc1ccc(O)c(I)c1)C(=O)O)c1c[nH]c2cccc(F)c12
Order field: Kd | Direction: descending (largest first) Output spec: labels arranged per the requested ranking.
B, C, A

[1] N=C(N)NCCC[C@H](NC(=O)[C@@H](Cc1ccc(O)c(I)c1)NC(=O)c1cc2c(F)cccc2[nH]1)C(=O)O
[2] O=C(N[C@@H](Cc1ccc(I)cc1)C(=O)O)c1cc2c(F)cccc2[nH]1
[3] O=C(N[C@@H](Cc1ccc(O)c(F)c1)C(=O)O)c1cc2c(F)cccc2[nH]1
Order field: Kd | Direction: descending (largest first) Output spec: labels arranged per the requested ranking.
1, 3, 2
(1: 3300 nM, 3: 1700 nM, 2: 70 nM)
